Target: T1, AFP158/HLA-A*02:01 complex (human)
T1 construct: flowed over the chip in SPR; also called AFP158 pro
Assay: SPR, scFv captured, pMHC in flow;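 also: complex injected at several concentrations over crude scFv, association then running-buffer dissociation, KD estimated from kinetic on- and off-rate constants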
So basically, if Kd comes in under 700 nM it's Yes, and if it's 700 nM or more it's No.

Worked cases, answers included:
LD97S (scFv, AS170036 VL1VH1 scFv mutein) scFv: QSALTQPRSVSGSPGQSVTISCAGTSSDVGSENYVSWYQQHPGKAPKLMIYQVNKRASGVPDRFSGSKSGNTASLTISGLQAEDEADYYCASYRSSSHNIVFGGGTKLTVLGGGGSGGGGSGGGGSEVQLVESGGGLVQPGGSLRLSCAASGFTFSSYAMSWVRQAPGKGLEWVSTINSGTGSPYYADSVKGRFTISRDNSKNTLYLQMNSLRAEDTAVYYCAKNFFDGSWFLGPPAMDYWGQGTLVTVSSHHHHHH : Yes
LD97V (scFv, AS170036 VL1VH1 scFv mutein) scFv: QSALTQPRSVSGSPGQSVTISCAGTSSDVGSENYVSWYQQHPGKAPKLMIYQVNKRASGVPDRFSGSKSGNTASLTISGLQAEDEADYYCASYRSSVHNIVFGGGTKLTVLGGGGSGGGGSGGGGSEVQLVESGGGLVQPGGSLRLSCAASGFTFSSYAMSWVRQAPGKGLEWVSTINSGTGSPYYADSVKGRFTISRDNSKNTLYLQMNSLRAEDTAVYYCAKNFFDGSWFLGPPAMDYWGQGTLVTVSSHHHHHH : Yes
LD97R (scFv, AS170036 VL1VH1 scFv mutein) scFv: QSALTQPRSVSGSPGQSVTISCAGTSSDVGSENYVSWYQQHPGKAPKLMIYQVNKRASGVPDRFSGSKSGNTASLTISGLQAEDEADYYCASYRSSRHNIVFGGGTKLTVLGGGGSGGGGSGGGGSEVQLVESGGGLVQPGGSLRLSCAASGFTFSSYAMSWVRQAPGKGLEWVSTINSGTGSPYYADSVKGRFTISRDNSKNTLYLQMNSLRAEDTAVYYCAKNFFDGSWFLGPPAMDYWGQGTLVTVSSHHHHHH : Yes

Shifting focus to the binder that follows.
Ask | Criterion: Kd strictly below 700 nM. Is it met by LY34D (scFv, AS170036 VL1VH1 scFv mutein) scFv: QSALTQPRSVSGSPGQSVTISCAGTSSDVGSENDVSWYQQHPGKAPKLMIYQVNKRASGVPDRFSGSKSGNTASLTISGLQAEDEADYYCASYRSSDHNIVFGGGTKLTVLGGGGSGGGGSGGGGSEVQLVESGGGLVQPGGSLRLSCAASGFTFSSYAMSWVRQAPGKGLEWVSTINSGTGSPYYADSVKGRFTISRDNSKNTLYLQMNSLRAEDTAVYYCAKNFFDGSWFLGPPAMDYWGQGTLVTVSSHHHHHH ?
Reply | No
